- testedTarget: JAK2 (recombinant purified GST-tagged catalytic domain) (Homo sapiens (Human));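 also: biochemical JAK kinase assay with HTRF detection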
- Sequence (O60674 849-1124): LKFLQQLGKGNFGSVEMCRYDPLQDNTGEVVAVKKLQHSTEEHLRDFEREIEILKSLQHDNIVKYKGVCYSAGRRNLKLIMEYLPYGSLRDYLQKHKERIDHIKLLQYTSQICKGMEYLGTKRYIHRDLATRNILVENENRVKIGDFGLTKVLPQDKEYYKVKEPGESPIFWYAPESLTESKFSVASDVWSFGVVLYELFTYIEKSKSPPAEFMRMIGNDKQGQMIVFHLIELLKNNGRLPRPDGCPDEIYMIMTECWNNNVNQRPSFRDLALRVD
- protocolSummary: biochemical
pIC50: −log10 of the molar value.
assayEndpoint: pIC50

Field: example entries. Status: answers known.
{"molecule": "N#C[C@H]1C[C@@H](OCC2CC2)CC[C@@H]1n1cc(C(N)=O)c(Nc2ccc(F)cc2)n1 (single isomer, unassigned)", "readoutNumber": 7.48}
{"molecule": "CC(C)(C)OC(=O)NC1CC[C@@H](C#N)C(n2cc(C(N)=O)c(Nc3ccc(F)cc3)n2)C1 (mixture of isomers)", "readoutNumber": 7.70}
{"molecule": "CC1(C)CN([C@@H]2CC[C@H](n3cc(C(N)=O)c(Nc4ccc([C@H](O)C(F)(F)F)cc4)n3)[C@@H](C#N)C2)C1 (single isomer, unassigned)", "readoutNumber": 7.96}

P: CCNC(=O)O[C@@H]1CCC(n2cc(C(N)=O)c(Nc3ccc(F)cc3)n2)[C@@H](C#N)C1 (mixture of isomers)
Q: N#C[C@H]1CCCC[C@@H]1n1cc(C(N)=O)c(Nc2ccc(S(=O)(=O)Nc3ccncc3)cc2)n1 (single isomer, unassigned)
Identify the entry with the smaller pIC50: P or Q . Indicate which entry you chose by stating its label.
P

I: N#C[C@H]1C[C@H](N2CCC2)CC[C@@H]1n1cc(C(N)=O)c(Nc2ccc(Cl)cc2)n1 (single isomer, unassigned)
II: CC1(N[C@H]2CCC(n3cc(C(N)=O)c(Nc4ccccc4)n3)[C@@H](C#N)C2)CC1 (single isomer, unassigned)
Lab notebook, comparison: I versus II , higher pIC50 goes to which? Answer by stating the label of the chosen item.
II
(II: 7.62, I: 6.96)

a: C[C@H](NC1CC[C@H](n2cc(C(N)=O)c(Nc3ccc(C(F)(F)F)cc3)n2)[C@@H](C#N)C1)C1CC1 (single isomer, unassigned)
b: COCC(C)N(C)[C@H]1CCC(n2cc(C(N)=O)c(Nc3ccc(Cl)cc3)n2)[C@@H](C#N)C1 (single isomer, unassigned) [Example 28-240]
Parameter check: reported pIC50 is higher for which label, a or b ? Field: selected label. Fill in the label of the entry you choose.
b
(b: 7.57, a: 6.98)

A: N#C[C@H]1CCCCC1n1cc(C(N)=O)c(Nc2ccc(S(=O)(=O)CF)cc2)n1 (mixture of isomers)
B: N#C[C@H]1C[C@@H](NC2CC2)CC[C@@H]1n1cc(C(N)=O)c(Nc2ccc(C(F)(F)F)cc2)n1 (single isomer, unassigned)
For A and B , which recorded pIC50 is lower? Respond using the label that marks the chosen record.
B
(B: 7.66, A: 8.70)
